tested on: CAL-51; experiment: normalised viability (% of control), CellTiter-Blue; higher = more viable cells (100 = DMSO, 0 = benzethonium chloride kill control); conditions: incubation time: 72 h
// normalised viability lookup, one value per entry
Only the number, expressed in %, is required.

Example compounds with recorded normalised viability:
compound	target.entity	units.label	normalised viability
Cn1c(CCCC(=O)O)nc2cc(N(CCCl)CCCl)ccc21 [Bendamustine] (1 nM)	CAL-51	%	102
CNCc1ccc(-c2[nH]c3cc(F)cc4c3c2CCNC4=O)cc1 [Rucaparib] (1 nM)	CAL-51	%	113
O=P1(NCCCl)OCCCN1CCCl (centres undefined) [Ifosfamide] (1 nM)	CAL-51	%	110
O=C1CCC(N2C(=O)c3ccccc3C2=O)C(=O)N1 (centres undefined) [Thalidomide] (1 nM)	CAL-51	%	86.2
CCN(CCCOc1ccc2c(Nc3cc(CC(=O)Nc4cccc(F)c4)[nH]n3)ncnc2c1)CCOP(=O)(O)O [Barasertib] (0.1 nM)	CAL-51	%	95.4

[in] Requested read-out: normalised viability. Entry: NCC(=O)CCC(=O)O [Aminolevulinic acid] (1 nM)
[out] 107

[in] Now consider CC1(C)NC(=O)N(c2ccc([N+](=O)[O-])c(C(F)(F)F)c2)C1=O [Nilutamide] (1 nM) .
[out] 100

[in] Now consider C#Cc1cccc(Nc2ncnc3cc(OCCOC)c(OCCOC)cc23)c1 [Erlotinib] (1 nM) .
[out] 98.2

[in] Now consider CN(N=O)C(=O)N[C@@H](C=O)[C@@H](O)[C@H](O)[C@H](O)CO [Streptozocin] (1 nM) .
[out] 110

###

test system: Hs578T; experiment: normalised response (% of control), CellTiter-Glo; higher = more viable cells (100 = DMSO, 0 = benzethonium chloride kill control); conditions: incubation time: 72 h
// normalised response lookup, one value per entry
Only the number, expressed in %, is required.

compound	normalised response / %
Cc1ccc(C(=O)Nc2ccc(CN3CCN(C)CC3)c(C(F)(F)F)c2)cc1C#Cc1cnc2cccnn12 [Ponatinib] (1 nM)	97.3
CNCc1ccc(-c2[nH]c3cc(F)cc4c3c2CCNC4=O)cc1 [Rucaparib] (10 nM)	98.5
C[C@]12CC[C@@H]3c4ccc(O)cc4C[C@@H](CCCCCCCCC[S+]([O-])CCCC(F)(F)C(F)(F)F)[C@H]3[C@@H]1CC[C@@H]2O (some centres undefined) [Fulvestrant] (0.1 nM)	112
C[C@@H](Oc1cc(-c2cnn(C3CCNCC3)c2)cnc1N)c1c(Cl)ccc(F)c1Cl [Crizotinib] (0.1 nM)	96.2
O=C(O)c1ccc(-c2c[nH]c3ncc(-c4ccccc4)cc23)cc1C1CCCC1 (1000 nM)	94.1

[in] Hs578T / normalised response / CCC1=C[C@@H]2CN(C1)Cc1c([nH]c3ccccc13)[C@@](C(=O)OC)(c1cc3c(cc1OC)N(C)[C@H]1[C@@](O)(C(=O)OC)[C@H](OC(C)=O)[C@]4(CC)C=CCN5CC[C@]31[C@@H]54)C2 [Vinorelbine] (1 nM) : value?
[out] 97.2

[in] Now consider C=C(c1ccc(C(=O)O)cc1)c1cc2c(cc1C)C(C)(C)CCC2(C)C [Bexarotene] (1 nM) .
[out] 93.2

[in] Now consider O=C(CCCCCCC(=O)Nc1ccc([C@H]2O[C@@H](CSc3nc(-c4ccccc4)c(-c4ccccc4)o3)C[C@@H](c3ccc(CO)cc3)O2)cc1)NO [Tubacin] (10 nM) .
[out] 104

[in] Now consider CS(=O)(=O)c1ccc(C2=C(c3ccccc3)C(=O)OC2)cc1 [Rofecoxib] (1 nM) .
[out] 104

[in] Now consider COc1cc2nccc(Oc3ccc(NC(=O)C4(C(=O)Nc5ccc(F)cc5)CC4)cc3)c2cc1OC [Cabozantinib] (1 nM) .
[out] 102
